Hello, the source for this data is ChEMBL document CHEMBL2150923, in case you need it.

Measured IC50 of individual entries
Tested on: HeLa
method-notes: Cytotoxicity against human HeLa cells after 96 hrs by resazurin-based spectrofluorimetric method
Format: cell-based

smiles-entry	system-name	IC50
COc1ccccc1-c1nc2ccccn2c1-c1ccccc1	HeLa	24 µM
COc1ccc(-c2nc3ccccn3c2-c2cccc([N+](=O)[O-])c2)cc1	HeLa	30 µM
O=[N+]([O-])c1ccc(-c2c(-c3ccccc3)nc3ccccn23)cc1	HeLa	27 µM
O=[N+]([O-])c1ccc(-c2nc3ccccn3c2-c2ccccc2)cc1	HeLa	554 µM
CCOC(=O)c1ccc(-c2c(-c3ccccc3)nc3ccccn23)cc1	HeLa	5 µM

====

method-notes: Inhibition of Leishmania major recombinant His-tagged CK1.2 using RRKHAAIGpSAYSITA as substrate and [32gammaP]ATP after 30 mins by scintillation counting
measured-attribute: IC50

smiles-entry	obs-value
COc1ccc(-c2nc3ccccn3c2-c2ccccc2)cc1	> 10 µM
CCOC(=O)c1ccc(-c2c(-c3ccccc3)nc3ccccn23)cc1	4 µM
c1ccc(-c2nc3ccccn3c2-c2ccncc2)cc1	0.3 µM
O=[N+]([O-])c1ccc(-c2c(-c3ccccc3)nc3ccccn23)cc1	> 10 µM
Clc1cc(Cl)cc(-c2nc3ccccn3c2-c2ccccc2)c1	> 10 µM
CCOC(=O)c1ccc(-c2nc3ccccn3c2-c2ccccc2)cc1	> 10 µM
CC(C)(C)C(=O)Oc1ccc(-c2c(-c3ccccc3)nc3ccccn23)cc1	> 10 µM

====

method-notes: Selectivity index, ratio of IC50 for human HeLa cells to IC50 for promastigote form of Leishmania major MHOM/IL/81/BNI
Type: toxicity, cell-based
test-context: read-out: Ratio IC50
measured-attribute: selectivity ratio

smiles-entry	measured-attribute	obs-value
Clc1cc(Cl)cc(-c2nc3ccccn3c2-c2ccccc2)c1	selectivity ratio	1.71
CCOC(=O)c1ccc(-c2c(-c3ccccc3)nc3ccccn23)cc1	selectivity ratio	0.96
Fc1ccc(-c2nc3ccccn3c2-c2ccccc2)cc1	selectivity ratio	3.13
c1ccc(-c2nc3ccccn3c2-c2ccncc2)cc1	selectivity ratio	3.85
COc1ccc(-c2nc3ccccn3c2-c2ccccc2)cc1	selectivity ratio	1.8
Cc1ccc(-c2c(-c3ccccc3)nc3ccccn23)cc1	selectivity ratio	1
CC(C)(C)C(=O)Oc1ccc(-c2c(-c3ccccc3)nc3ccccn23)cc1	selectivity ratio	5.43
O=[N+]([O-])c1ccc(-c2c(-c3ccccc3)nc3ccccn23)cc1	selectivity ratio	5.51
Clc1cc(Cl)cc(-c2nc3ccccn3c2-c2cccnc2)c1	selectivity ratio	0.89
Fc1ccccc1-c1nc2ccccn2c1-c1cccnc1	selectivity ratio	0.83
